The values you see were collected from patent US12522599B2.

- measurementNotes: Stability experiment (75% RH, 92.5% RH, 40° C., 60° C. and light for 10 days; XRPD pattern and purity)
- Type: physicochemical
- protocolConditions: 0 day
experimentalReadout: Purity % (%)
One number for each entry, in %.

C[C@@H]1Cc2c([nH]c3ccccc23)[C@@H](c2c(F)cc(/C=C/C(=O)O)cc2F)N1CC1(F)CC1 [crystal form B]	99.87
C[C@@H]1Cc2c([nH]c3ccccc23)[C@@H](c2c(F)cc(/C=C/C(=O)O)cc2F)N1CC1(F)CC1 [amorphous form]	95.82
C[C@@H]1Cc2c([nH]c3ccccc23)[C@@H](c2c(F)cc(/C=C/C(=O)O)cc2F)N1CC1(F)CC1 [crystal form C]	99.78

What measured Purity % goes with C[C@@H]1Cc2c([nH]c3ccccc23)[C@@H](c2c(F)cc(/C=C/C(=O)O)cc2F)N1CC1(F)CC1 [crystal form A] ?
99.33

====

I'd appreciate it if you could supply Purity % values for the items below.
- measurementNotes: Stability experiment (75% RH, 92.5% RH, 40° C., 60° C. and light for 10 days; XRPD pattern and purity)
- Assay type: physicochemical
- protocolConditions: 75% RH, 10 days
Numbers only, in %.

Look over these answered cases.
C[C@@H]1Cc2c([nH]c3ccccc23)[C@@H](c2c(F)cc(/C=C/C(=O)O)cc2F)N1CC1(F)CC1 [crystal form A]	99.31
C[C@@H]1Cc2c([nH]c3ccccc23)[C@@H](c2c(F)cc(/C=C/C(=O)O)cc2F)N1CC1(F)CC1 [amorphous form]	96.22
C[C@@H]1Cc2c([nH]c3ccccc23)[C@@H](c2c(F)cc(/C=C/C(=O)O)cc2F)N1CC1(F)CC1 [crystal form C]	99.79

What measured Purity % goes with C[C@@H]1Cc2c([nH]c3ccccc23)[C@@H](c2c(F)cc(/C=C/C(=O)O)cc2F)N1CC1(F)CC1 [crystal form B] ?
99.81

====

- measurementNotes: Flowability test (angle of repose)
- Assay type: physicochemical
- protocolConditions: measurement 2
I'd appreciate it if you could supply angle of repose values for the items below.
One number for each entry, in °.

Look over these answered cases.
C[C@@H]1Cc2c([nH]c3ccccc23)[C@@H](c2c(F)cc(/C=C/C(=O)O)cc2F)N1CC1(F)CC1 [amorphous form]	41.9
C[C@@H]1Cc2c([nH]c3ccccc23)[C@@H](c2c(F)cc(/C=C/C(=O)O)cc2F)N1CC1(F)CC1 [crystal form C]	31.8
C[C@@H]1Cc2c([nH]c3ccccc23)[C@@H](c2c(F)cc(/C=C/C(=O)O)cc2F)N1CC1(F)CC1 [crystal form A]	29.6

What measured angle of repose goes with C[C@@H]1Cc2c([nH]c3ccccc23)[C@@H](c2c(F)cc(/C=C/C(=O)O)cc2F)N1CC1(F)CC1 [crystal form B] ?
31.3

====

I'd appreciate it if you could supply Purity % values for the items below.
- measurementNotes: Stability experiment (75% RH, 92.5% RH, 40° C., 60° C. and light for 10 days; XRPD pattern and purity)
- Format: physicochemical
- protocolConditions: 40° C., 10 days
Give bare numbers, in %.

Look over these answered cases.
C[C@@H]1Cc2c([nH]c3ccccc23)[C@@H](c2c(F)cc(/C=C/C(=O)O)cc2F)N1CC1(F)CC1 [crystal form C]	99.80
C[C@@H]1Cc2c([nH]c3ccccc23)[C@@H](c2c(F)cc(/C=C/C(=O)O)cc2F)N1CC1(F)CC1 [amorphous form]	95.80
C[C@@H]1Cc2c([nH]c3ccccc23)[C@@H](c2c(F)cc(/C=C/C(=O)O)cc2F)N1CC1(F)CC1 [crystal form B]	99.77

What measured Purity % goes with C[C@@H]1Cc2c([nH]c3ccccc23)[C@@H](c2c(F)cc(/C=C/C(=O)O)cc2F)N1CC1(F)CC1 [crystal form A] ?
99.27
